Compound: COc1cc(NC(C(=O)c2c[nH]c3c(C)c(F)ccc23)c2ccc(Cl)cc2OCCO)cc(S(C)(=O)=O)c1 (racemic)
melting point [°C]: 173
--
Compound: COc1cc(NC(C(=O)c2c[nH]c3cc(OC)c(OC(F)(F)F)cc23)c2ccc(Cl)cc2OCCO)cc(S(C)(=O)=O)c1 (racemic)
melting point [°C]: 212
--
Compound: COc1cc(NC(C(=O)c2c[nH]c3ccc(C(F)(F)F)cc23)c2ccc(Cl)cc2OCCO)cc(S(C)(=O)=O)c1 (racemic)
melting point [°C]: 228

====

Listed here are compounds together with their documented CC50.
Assay: in vitro
Type: cell-based
Details: African green monkey, CC50

Compound: COc1cc(NC(C(=O)c2c[nH]c3c(C)c(Cl)ccc23)c2ccc(Cl)cc2OCCO)cc(S(C)(=O)=O)c1 (racemic) [Compound 5]
Censor Symbol: =
CC50 / nM: 4300
//
Compound: COc1cc(NC(C(=O)c2c[nH]c3cc(F)c(C)cc23)c2ccc(Cl)cc2OCCO)cc(S(C)(=O)=O)c1 (racemic) [Compound 8]
Censor Symbol: =
CC50 / nM: 2800
//
Compound: COc1cc(NC(C(=O)c2c[nH]c3cc(OC)c(C)cc23)c2ccc(Cl)cc2OCCO)cc(S(C)(=O)=O)c1 (racemic) [Compound 6]
Censor Symbol: =
CC50 / nM: 4700
//
Compound: COc1cc(NC(C(=O)c2c[nH]c3cc(F)c(C)cc23)c2ccc(Cl)cc2OCCO)cc(S(C)(=O)=O)c1 (single isomer, unassigned) [Compound 8A]
Censor Symbol: >
CC50 / nM: 2500
//
Compound: COc1cc(NC(C(=O)c2c[nH]c3cc(OC)ccc23)c2ccc(Cl)cc2OCCO)cc(S(C)(=O)=O)c1 (racemic)
Censor Symbol: =
CC50 / nM: 12000
//
Compound: COc1cc(NC(C(=O)c2c[nH]c3c(C)c(Cl)ccc23)c2ccc(Cl)cc2OCCO)cc(S(C)(=O)=O)c1 (single isomer, unassigned) [Compound 5A]
Censor Symbol: =
CC50 / nM: 5000
//
Compound: COc1cc(NC(C(=O)c2c[nH]c3cc(F)ccc23)c2ccc(Cl)cc2OCCO)cc(S(C)(=O)=O)c1 (racemic)
Censor Symbol: =
CC50 / nM: 5100
//
Compound: COc1cc(NC(C(=O)c2c[nH]c3ccc(C(F)(F)F)cc23)c2ccc(Cl)cc2OCCO)cc(S(C)(=O)=O)c1 (racemic)
Censor Symbol: >
CC50 / nM: 2500
//
Compound: COc1cc(NC(C(=O)c2c[nH]c3ccc(OC(F)(F)F)cc23)c2ccc(Cl)cc2OCCO)cc(S(C)(=O)=O)c1 (single isomer, unassigned) [Compound 10A]
Censor Symbol: =
CC50 / nM: 2300
//
Compound: COc1cc(NC(C(=O)c2c[nH]c3cc(OC)c(OC(F)(F)F)cc23)c2ccc(Cl)cc2OCCO)cc(S(C)(=O)=O)c1 (single isomer, unassigned) [Compound 11A]
Censor Symbol: >
CC50 / nM: 2300
//
Compound: COc1cc(NC(C(=O)c2c[nH]c3cc(OC)c(OC(F)(F)F)cc23)c2ccc(Cl)cc2OCCO)cc(S(C)(=O)=O)c1 (racemic) [Compound 11]
Censor Symbol: >
CC50 / nM: 2500
//
Compound: COc1cc(NC(C(=O)c2c[nH]c3ccc(OC(F)(F)F)cc23)c2ccc(Cl)cc2OCCO)cc(S(C)(=O)=O)c1 (racemic) [Compound 10]
Censor Symbol: >
CC50 / nM: 2400
//
Compound: COc1cc(NC(C(=O)c2c[nH]c3c(C)c(F)ccc23)c2ccc(Cl)cc2OCCO)cc(S(C)(=O)=O)c1 (racemic) [Compound 4]
Censor Symbol: =
CC50 / nM: 3700
//
Compound: COc1cc(NC(C(=O)c2c[nH]c3cc(F)c(F)cc23)c2ccc(Cl)cc2OCCO)cc(S(C)(=O)=O)c1 (racemic)
Censor Symbol: =
CC50 / nM: 2800
//
Compound: COc1cc(NC(C(=O)c2c[nH]c3c(C)c(F)ccc23)c2ccc(Cl)cc2OCCO)cc(S(C)(=O)=O)c1 (single isomer, unassigned) [Compound 4A]
Censor Symbol: =
CC50 / nM: 3000
//
Compound: COc1cc(NC(C(=O)c2c[nH]c3c(C)cc(OC(F)(F)F)cc23)c2ccc(Cl)cc2OCCO)cc(S(C)(=O)=O)c1 (single isomer, unassigned) [Compound 12A]
Censor Symbol: =
CC50 / nM: 2500
//
Compound: COc1cc(NC(C(=O)c2c[nH]c3cc(Cl)ccc23)c2ccc(Cl)cc2OCCO)cc(S(C)(=O)=O)c1 (racemic)
Censor Symbol: =
CC50 / nM: 4200
//
Compound: COc1cc(NC(C(=O)c2c[nH]c3c(C)cc(OC(F)(F)F)cc23)c2ccc(Cl)cc2OCCO)cc(S(C)(=O)=O)c1 (racemic) [Compound 12]
Censor Symbol: =
CC50 / nM: 2500
//
Compound: COc1cc(NC(C(=O)c2c[nH]c3cc(OC)c(C)cc23)c2ccc(Cl)cc2OCCO)cc(S(C)(=O)=O)c1 (single isomer, unassigned) [Compound 6A]
Censor Symbol: =
CC50 / nM: 3800
